tested on: HLA-A*24; assay: MHC binding assay, UV-ligand exchange with β2m ELISA, HLA-A*24 (Table 21); design: species or system human; settings: binding to HLA-A*24 ranged by peptide exchange yield (UV-ligand exchange, β2m ELISA)
Recorded Metric: Peptide exchange

Study these solved cases before continuing.
- Substance: "168 (KYQDILETI; listed as Homo sapiens) [compound 168]"
  Result: "++++ (≧75% = ++++)"
- Substance: "196 (LYIDRPLPYL; listed as Homo sapiens) [compound 196]"
  Result: "+++ (50%-75% = +++)"
- Substance: "176 (EYNQWFTKL; listed as Homo sapiens) [compound 176]"
  Result: "+++ (50%-75% = +++)"
- Substance: "217 (FFPPTRQMGLLF; listed as Homo sapiens) [compound 217]"
  Result: "++++ (≧75% = ++++)"
- Substance: "191 (VFKASKITF; listed as Homo sapiens) [compound 191]"
  Result: "+++ (50%-75% = +++)"
- Substance: "172 (TYTTVPRVAF; listed as Homo sapiens) [compound 172]"
  Result: "++++ (≧75% = ++++)"
- Substance: "272 (QYLQDAYSF; listed as Homo sapiens) [compound 272]"
  Result: "++++ (≧75% = ++++)"
- Substance: "186 (IFPQFLYQF; listed as Homo sapiens) [compound 186]"
  Result: "++++ (≧75% = ++++)"

Query: Peptide exchange; subject: 165 (DYTTWTALL; listed as Homo sapiens) [compound 165] ++++ (≧75% = ++++)

Query: Peptide exchange; subject: 169 (AYTLIAPNI; listed as Homo sapiens) [compound 169] +++ (50%-75% = +++)

Query: Peptide exchange; subject: 188 (RYFKGLVF; listed as Homo sapiens) [compound 188] +++ (50%-75% = +++)

----------
tested on: HLA-A*02; test: MHC binding assay, UV-ligand exchange with β2m ELISA, HLA-A*02 (Table 20); design: species or system human; details: binding to HLA-A*02 ranged by peptide exchange yield (UV-ligand exchange, β2m ELISA)
Recorded Metric: Peptide exchange

- Substance: "232 (KIFPAALQLV; listed as Homo sapiens) [compound 232]"
  Peptide exchange: "+++ (50%-75% = +++)"
- Substance: "7 (ILDHEVPSL; listed as Homo sapiens) [compound 7]"
  Peptide exchange: "+++ (50%-75% = +++)"
- Substance: "65 (SVVPDVRSV; listed as Homo sapiens) [compound 65]"
  Peptide exchange: "++ (20%-49% = ++)"
- Substance: "236 (STIAILNSV; listed as Homo sapiens) [compound 236]"
  Peptide exchange: "+++ (50%-75% = +++)"
- Substance: "260 (ILLEKILSL; listed as Homo sapiens) [compound 260]"
  Peptide exchange: "+++ (50%-75% = +++)"

Find Peptide exchange (HLA-A*02) for the entry 154 (RLLGTEFQV; listed as Homo sapiens) [compound 154] +++ (50%-75% = +++)

Find Peptide exchange (HLA-A*02) for the entry 144 (ALLAFFPGL; listed as Homo sapiens) [compound 144] +++ (50%-75% = +++)

Find Peptide exchange (HLA-A*02) for the entry 48 (QVIEDSTGV; listed as Homo sapiens) [compound 48] ++ (20%-49% = ++)
